# Assay Notes: mitochondrial membrane potential change in A549 cells, profiling panel, cell-based, JC-1 fluorescence, basal, 24 h, 100 nL (AID 1138);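 note: A549 lung adenocarcinoma cells under basal conditions with no added stimulus; test concentration not given here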
# Condition Description: higher = more signal
Hi there, I'd appreciate the recorded z-score for every entry that follows.
Give the figure only, with no unit attached.

Task: For the molecule COc1cccc(C)c1NC(=O)O[C@H]1[C@H](OC(=O)Nc2ccc3c(c2)OCO3)[C@H](OC(=O)Nc2ccc3c(c2)OCO3)[C@@H](OC)O[C@@H]1CO , what z-score is on record?
Output: 0.123

Task: For the molecule CN1C(=O)C2C=CC(C(O)c3ccc([N+](=O)[O-])cc3)N(Nc3ccccc3)C2C1=O (stereo unspecified) , what z-score is on record?
Output: -0.387

Task: For the molecule C=CCOC(=O)[C@H]1[C@@H]2C(=O)O[C@@H](c3ccccc3)[C@@H](c3ccccc3)N2[C@@H](c2ccc(OCCOC(=O)[C@H]3C[C@H]4C(=O)NCC(=O)N4[C@H]3c3ccc(O)cc3)cc2)[C@]12C(=O)Nc1ccccc12 , what z-score is on record?
Output: -1.62

Task: For the molecule CCOC(=O)C[C@H]1[C@H](OC(=O)c2ccc(-c3ccccc3)cc2)[C@@H](NC(=O)c2ccc(-c3ccccc3)cc2)c2cc(OCCCO)ccc2N1C(=O)c1ccccc1 , what z-score is on record?
Output: 0.392

Task: For the molecule CN1C(=O)C2CC=C(C3=CCO[C@@H]3[C@H]3CCCN3S(=O)(=O)c3ccccc3[N+](=O)[O-])CC2C1=O (stereo partly specified) , what z-score is on record?
Output: 0.0911

Task: For the molecule COC(=O)C(CC#Cc1ccc2c(c1)[C@]1(C(=O)N2)[C@H](c2ccc(OCCO)cc2)N2[C@H](c3ccccc3)[C@H](c3ccccc3)OC(=O)[C@H]2[C@@H]1C(N)=O)C(=O)OC , what z-score is on record?
Output: -0.616

* * *

Hi there, I'd appreciate the recorded composite z-score for every entry that follows.
# Subject Of Test: Calmodulin-1 (Homo sapiens) (UniProt P0DP23)
# Assay Notes: CALM1 binders on microarrays, EGTA buffer, profiling panel, biochemical, small-molecule microarray, Cy5-labelled CALM1 (AID 1111);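 note: labelled calmodulin applied in Tris saline Tween buffer holding calcium plus EGTA and DTT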
# Condition Description: Cy5-CALM1 binding fluorescence, higher = more signal
Give the figure only, with no unit attached.

Task: For the molecule CN1C(=O)C2C=CC(C(O)c3ccc(I)cc3)N(N(c3ccccc3)c3ccccc3)C2C1=O (configuration not stated) , what composite z-score is on record?
Output: 0.95

Task: For the molecule COC(=O)C(CC#Cc1ccc2c(c1)[C@]1(C(=O)N2)[C@H](C(=O)NC[C@H](O)c2ccccc2)[C@H]2C(=O)O[C@H](c3ccccc3)[C@H](c3ccccc3)N2[C@@H]1c1ccc(O)cc1)C(=O)OC , what composite z-score is on record?
Output: -0.113

Task: For the molecule COc1cc(Cc2cc3c(c(CCc4ccccc4)n2)[Si](C(C)C)(C(C)C)O[C@H]3c2ccccc2)cc(OC)c1OC , what composite z-score is on record?
Output: -0.448

Task: For the molecule COC(=O)[C@@]1(Cc2ccc(F)cc2)[C@H]2c3cc(C(=O)N4CCCC4)n(Cc4ccc(C(F)(F)F)nc4)c3C[C@H]2CN1C(=O)c1ccccc1 , what composite z-score is on record?
Output: 2.16

Task: For the molecule C=CCC(OC(C)=O)[C@@H]1[C@@H](N(Cc2ccc(-c3ccccc3)cc2)C(=O)Cc2ccc(OC)cc2)c2cc(OCCCO)ccc2N1C(=O)Cc1ccc(OC)cc1 (some centres not stated) , what composite z-score is on record?
Output: 0.194

Task: For the molecule O=C(O)C1=CC[C@H]2C(=O)N(c3ccccc3)C(=O)[C@@H]12 , what composite z-score is on record?
Output: 0.661

Task: For the molecule CC1C2C(CCCO)=CC(C3C(=O)N(C)C(=O)C23)N1Cc1cccc(OC(F)(F)F)c1 (configuration not stated) , what composite z-score is on record?
Output: 1.65

* * *

# Assay Notes: basal S. cerevisiae growth modulation, no modifier, primary screen, OD600, strain BY4716, 24 h, basal condition (AID 1173)
# Condition Description: OD600, 24 h, higher = more signal, called active from +8 up or from −8 down
Measured Endpoint: z-score
Give the figure only, with no unit attached.

Task: For the compound C#CCN(C(=O)OC(C)(C)C)[C@H](CO)c1ccccc1 , what z-score is on record?
Output: -7.87

Task: For the compound C=CCC(OC(C)=O)[C@@H]1[C@@H](N(Cc2ccc(-c3ccccc3)cc2)C(=O)Cc2ccc(OC)cc2)c2cc(OCCCO)ccc2N1C(=O)Cc1ccc(OC)cc1 (some centres undefined) , what z-score is on record?
Output: 0.118

Task: For the compound COCCCNC(=O)[C@]1(Cc2ccccc2CN=[N+]=[N-])N=C(c2ccc(OCCCO)cc2)O[C@@H]1c1ccccc1N=[N+]=[N-] , what z-score is on record?
Output: 0.234

Task: For the compound CC(C)(C)OC(=O)CC[C@@]1(C(=O)N2CCOCC2)N=C(c2ccc(OCCCO)cc2)O[C@@H]1c1ccccc1CN=[N+]=[N-] , what z-score is on record?
Output: -0.295

Task: For the compound C=CCC(OC(C)=O)[C@@H]1[C@@H](N(Cc2cccc3ccccc23)C(=O)c2ccc(C)cc2)c2cc(OCCCO)ccc2N1C(=O)Cc1ccc2ccccc2c1 (some centres undefined) , what z-score is on record?
Output: -1.34

Task: For the compound COC(=O)[C@@]1(Cc2ccccc2)[C@H]2c3cc(C(=O)N(C)C)n(Cc4ccc(Cl)c(C(F)(F)F)c4)c3C[C@H]2CN1C(=O)c1ccccc1 , what z-score is on record?
Output: 2.32

Task: For the compound C=C(COC)C(=O)CC[C@H](OC(C)=O)c1ccccc1OCCO , what z-score is on record?
Output: -0.86

Task: For the compound Cc1c(NC(=O)/C(C#N)=C/C=C/c2ccc([N+](=O)[O-])cc2)c(=O)n(-c2ccccc2)n1C , what z-score is on record?
Output: -0.546

Task: For the compound CC(C)N1C(=O)[C@@]2(Cc3ccccc31)c1ccccc1C(=O)N(Cc1ccccc1)[C@H]2c1ccc(CO)cc1 , what z-score is on record?
Output: 2.07

Task: For the compound COC(=O)[C@@]1(Cc2ccc(F)cc2)[C@H]2c3cc(C(=O)N4CCCC4)n(CCSCCO)c3C[C@H]2CN1C(=O)c1ccccc1 , what z-score is on record?
Output: 1.54

Task: For the compound COC(=O)C(CC#Cc1ccc2c(c1)[C@]1(C(=O)N2)[C@H](C(=O)N2CCCCCCC2)[C@H]2C(=O)O[C@H](c3ccccc3)[C@H](c3ccccc3)N2[C@@H]1c1ccc(OCCO)cc1)C(=O)OC , what z-score is on record?
Output: 1.43

Task: For the compound CC(C)(C)OC(=O)N1[C@@H](C=C(Br)Br)COC1(C)C , what z-score is on record?
Output: -4.13

Task: For the compound O=C/C=C/c1ccc(-c2ccccc2)cc1 , what z-score is on record?
Output: -18.6

Task: For the compound COc1ccc([Si](C)(C)[C@H]2[C@H](CC(=O)N3CCC[C@H]3CO)O[C@@]3(C(=O)N(C)c4c(Br)cc(C)cc43)[C@@H]2C)cc1 , what z-score is on record?
Output: -0.966

Task: For the compound O=C(NC1CC1)[C@@H]1c2ccccc2C(=O)N(C2CCCCC2)[C@H]1c1ccc(CO)cc1 , what z-score is on record?
Output: 0.678

Task: For the compound COC(=O)[C@@]1(Cc2ccc(F)cc2)[C@H]2c3cc(C(=O)N(C)C)n(Cc4ccsc4Br)c3C[C@H]2CN1C(=O)c1ccccc1 , what z-score is on record?
Output: 1.08

Task: For the compound COC(=O)[C@@]1(Cc2ccc(F)cc2)[C@H]2c3cc(C(=O)N4CCCC4)n(C[C@H](O)CO)c3C[C@H]2CN1C(=O)c1ccccc1 , what z-score is on record?
Output: 0.897

Task: For the compound Cc1ccc(S[C@]2(C(=O)NCCN3CCOCC3)CC(=O)N(C(C)C)[C@@H]2c2ccc(CO)cc2I)cc1 , what z-score is on record?
Output: -3.26

Task: For the compound CC[C@@H](O[Si](C#C[Si](C(C)C)(C(C)C)C(C)C)(C(C)C)C(C)C)c1cn([C@H](CO)Cc2ccccc2)nn1 , what z-score is on record?
Output: 1.79

Task: For the compound CCCCCCCCCCC(O)C1C=CC2C(=O)N(C)C(=O)C2N1Nc1ccccc1 (centres undefined) , what z-score is on record?
Output: 0.27

Task: For the compound CCOC(=O)C=C1C[C@@H](c2cccc([N+](=O)[O-])c2)O[C@@H](c2cccc([N+](=O)[O-])c2)O1 , what z-score is on record?
Output: 2.03

Task: For the compound O=C1OC[C@@H](c2ccccc2)n2cc(/C=C/c3ccccc3)cc21 , what z-score is on record?
Output: -2.5

Task: For the compound CCCCC(=C=CC[C@@H](O)c1ccc(OCCO)cc1)CCO , what z-score is on record?
Output: -4.12

Task: For the compound CO[C@H]1O[C@H](CO)[C@@H](OC(=O)Nc2cccc(F)c2)[C@H](OC(=O)c2cc3ccccc3[nH]2)[C@H]1OC(=O)c1cc2ccccc2[nH]1 , what z-score is on record?
Output: -0.21

Task: For the compound C=CCNC(=O)[C@H]1[C@@H]2C(=O)O[C@@H](c3ccccc3)[C@@H](c3ccccc3)N2[C@@H](c2ccc(O)cc2)[C@]12C(=O)Nc1ccccc12 , what z-score is on record?
Output: -0.842

Task: For the compound CN1C(=O)C2CC=C(C3=CCO[C@@H]3[C@H]3CCCN3S(=O)(=O)c3ccccc3[N+](=O)[O-])CC2C1=O (some centres undefined) , what z-score is on record?
Output: 0.175

Task: For the compound C=CCNC(=O)[C@H]1[C@@H]2C(=O)O[C@@H](c3ccccc3)[C@@H](c3ccccc3)N2[C@@H](c2ccc(OCCO)cc2)[C@]12C(=O)Nc1ccc(C#Cc3ccc(OC)cc3)cc12 , what z-score is on record?
Output: 2.32

Task: For the compound COC(=O)C(CC#Cc1ccc2c(c1)[C@]1(C(=O)N2)[C@H](c2ccccc2OCCO)N2[C@H](c3ccccc3)[C@H](c3ccccc3)OC(=O)[C@H]2[C@@H]1C(=O)N1CCN(c2ncccn2)CC1)C(=O)OC , what z-score is on record?
Output: 2.09

Task: For the compound C=C(COC)/C(=C/C[C@@H](OC(=O)c1ccncc1)c1ccccc1OCCO)c1cnc2ccccc2c1 , what z-score is on record?
Output: -0.0618
